# inhibition at 20 µM values compiled below
- TARGET: E. coli CsgA (Escherichia coli, UniProt P28307)
- Construct: made in house; host or cells: E. coli NEB 3016 slyD::kan, pET11d
- Sequence (P28307 23-151): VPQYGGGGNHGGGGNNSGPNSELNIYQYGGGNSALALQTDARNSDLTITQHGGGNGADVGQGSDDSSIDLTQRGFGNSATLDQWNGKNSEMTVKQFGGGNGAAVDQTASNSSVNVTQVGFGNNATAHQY
- TEST DETAILS: In vitro ThioflavinT assay of CsgA aggregation
- Format: biochemical
- EXPERIMENTAL SETUP: read-out: Inhibition of Aggregation CsgA (compound activity range), compounds at 20 μM; CsgA at 20 μM; ThT fluorescence at 18 hours

Completed entries (count: 6):
# COMPOUND, VALUE
rows = [
    ("COc1cc(O)ccc1O [methoxy-hydroquinone, 2-methoxybenzene-1,4-diol]", "30 to 60%"),
    ("O=c1c(O)c(-c2ccc(O)cc2O)oc2cc(O)cc(O)c12", "> 60%"),
    ("C/C=C/c1ccc(O)c(OC)c1", "-10 to 10%"),
    ("C=CCc1ccc(OC)c(OC)c1", "< -10%"),
    ("Brc1cccc(-c2cc(-c3ccc4c(c3)OCO4)n[nH]2)c1 [Anle 138b, reference compound]", "-10 to 10%"),
    ("CCCCCCCCCCCCOC(=O)c1cc(O)c(O)c(O)c1 [lauryl gallate, dodecyl 3,4,5-trihydroxybenzoate]", "-10 to 10%"),
]

query: Please report the recorded inhibition at 20 µM for CC(Cc1ccc(O)c(O)c1)C(C)Cc1ccc(O)c(O)c1 (stereo not shown) .
result: 10 to 30%
